target: Cystic fibrosis transmembrane conductance regulator (Homo sapiens); assay: Binding affinity to human CFTR F508 deletion mutant expressed in FRT cells assessed as increase in iodine influx after 16 to 20 hrs by fluorescence assay
Sequence (P13569 whole entry, looked up): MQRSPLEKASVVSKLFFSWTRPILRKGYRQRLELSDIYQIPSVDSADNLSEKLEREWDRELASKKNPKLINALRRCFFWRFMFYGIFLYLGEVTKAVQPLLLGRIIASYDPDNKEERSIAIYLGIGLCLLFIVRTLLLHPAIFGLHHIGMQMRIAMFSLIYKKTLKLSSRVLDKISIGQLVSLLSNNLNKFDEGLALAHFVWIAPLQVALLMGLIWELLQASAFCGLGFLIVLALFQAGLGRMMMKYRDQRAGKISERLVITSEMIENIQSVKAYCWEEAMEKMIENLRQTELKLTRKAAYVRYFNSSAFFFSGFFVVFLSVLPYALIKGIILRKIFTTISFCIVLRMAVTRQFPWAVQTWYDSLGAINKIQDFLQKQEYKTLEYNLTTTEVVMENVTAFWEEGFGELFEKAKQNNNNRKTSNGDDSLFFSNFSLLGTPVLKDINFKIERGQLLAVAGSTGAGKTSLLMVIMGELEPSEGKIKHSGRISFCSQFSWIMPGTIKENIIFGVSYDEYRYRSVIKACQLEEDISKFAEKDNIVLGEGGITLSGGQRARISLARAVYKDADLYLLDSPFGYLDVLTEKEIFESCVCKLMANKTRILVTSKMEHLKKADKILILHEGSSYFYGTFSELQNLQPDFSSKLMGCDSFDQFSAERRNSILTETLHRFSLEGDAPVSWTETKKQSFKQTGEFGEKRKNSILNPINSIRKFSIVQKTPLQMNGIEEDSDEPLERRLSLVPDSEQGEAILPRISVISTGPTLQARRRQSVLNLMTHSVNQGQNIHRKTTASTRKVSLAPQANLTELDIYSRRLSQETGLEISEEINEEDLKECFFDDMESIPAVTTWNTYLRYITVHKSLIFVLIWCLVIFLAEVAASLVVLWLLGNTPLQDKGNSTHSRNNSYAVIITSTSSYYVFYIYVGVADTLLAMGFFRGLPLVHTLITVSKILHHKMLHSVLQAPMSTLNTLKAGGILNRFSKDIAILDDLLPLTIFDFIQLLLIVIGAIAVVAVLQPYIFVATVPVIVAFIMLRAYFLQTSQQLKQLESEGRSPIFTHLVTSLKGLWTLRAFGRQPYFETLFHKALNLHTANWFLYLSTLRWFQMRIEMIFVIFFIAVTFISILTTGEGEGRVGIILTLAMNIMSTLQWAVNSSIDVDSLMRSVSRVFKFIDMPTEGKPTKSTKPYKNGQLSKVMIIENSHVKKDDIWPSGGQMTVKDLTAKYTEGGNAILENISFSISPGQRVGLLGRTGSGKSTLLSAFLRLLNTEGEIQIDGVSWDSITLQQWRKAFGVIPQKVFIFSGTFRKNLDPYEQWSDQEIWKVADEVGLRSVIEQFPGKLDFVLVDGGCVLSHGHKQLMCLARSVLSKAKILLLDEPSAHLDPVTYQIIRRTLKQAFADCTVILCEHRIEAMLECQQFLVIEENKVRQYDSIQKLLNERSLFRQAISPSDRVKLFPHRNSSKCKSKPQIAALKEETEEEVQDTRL
Would you kindly list EC50 for each of these compounds?
State just the number; it will be interpreted in nM.

Return reported EC50. Input compound: `COc1ccc(Cl)cc1Nc1nc2c(s1)CCCc1nc(NC(=O)C(C)(C)C)sc1-2`
300

Return reported EC50. Input compound: `CCOC(=O)c1cc(-c2sc(NC(=O)C(C)(C)C)nc2C)nn1Cc1ccccc1`
8500

Return reported EC50. Input compound: `COc1ccc(NC(=O)c2cc(-c3sc(NC(=O)C(C)(C)C)nc3C)n(-c3ccc(Br)cc3)n2)cc1`
3400

Return reported EC50. Input compound: `COc1ccc(Cl)cc1Nc1nc(-c2sc(NC(=O)C(C)(C)C)nc2C)cs1`
700

Ref: ChEMBL document CHEMBL1158533
